tgt: 5-HT7 receptors (Homo sapiens, UniProt P34969)
Sequence (P34969 whole entry): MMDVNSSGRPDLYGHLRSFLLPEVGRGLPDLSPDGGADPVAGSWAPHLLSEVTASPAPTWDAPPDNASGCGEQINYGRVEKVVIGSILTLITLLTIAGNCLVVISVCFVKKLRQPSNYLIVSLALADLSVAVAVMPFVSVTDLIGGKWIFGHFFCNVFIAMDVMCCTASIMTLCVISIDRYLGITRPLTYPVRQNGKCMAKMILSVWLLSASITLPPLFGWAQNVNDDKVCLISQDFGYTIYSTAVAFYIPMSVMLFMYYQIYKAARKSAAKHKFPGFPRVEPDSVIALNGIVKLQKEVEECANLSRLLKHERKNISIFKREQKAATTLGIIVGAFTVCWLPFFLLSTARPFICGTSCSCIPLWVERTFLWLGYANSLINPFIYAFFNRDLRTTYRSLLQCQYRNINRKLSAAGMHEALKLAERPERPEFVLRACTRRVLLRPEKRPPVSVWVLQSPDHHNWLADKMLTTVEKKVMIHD
protocol: Radiolabeled binding ([3H]LSD competition), membranes of cells expressing recombinant 5-HT7 receptors
assay conditions: [3H]LSD radioligand binding
property name: Ki

A selection of reference data follows.
# compound, tgt, reading
rows = [
    ("CCC1(CC)C[C@H](CCN2CCN(c3ccc(F)cc3)CC2)N(C)C1=O [Compound A87]", "5-HT7 receptors (Homo sapiens, UniProt P34969)", "< 50 nM"),
    ("O=C(CN1CCOCC1)N1CCC2(CC1)C[C@H](CCN1CCN(c3cccc(Cl)c3)CC1)NC2=O [Compound A34]", "5-HT7 receptors (Homo sapiens, UniProt P34969)", "200 to 500 nM"),
    ("CCC1(CC)C[C@H](CCN2CCN(c3cccc(Cl)c3)CC2)N(C)C1=O [Compound A86]", "5-HT7 receptors (Homo sapiens, UniProt P34969)", "< 50 nM"),
]

Lookup result for CCC1(CC)C[C@H](CCN2CCN(c3ccccc3)CC2)N(C)C1=O [Compound A85] ; measured Ki: 50 to 200 nM

* * *

tgt: 5-HT7 receptors (Homo sapiens)
protocol: Radiolabeled binding ([3H]LSD competition), membranes of cells expressing recombinant 5-HT7 receptors
Design: expressed in transfected cells
assay conditions: read-out: 5-HT7 % Inhib. @ 0.1 uM (Ki column)
property name: inhibition at 0.1 µM (%)

# compound, reading
records = [
    ("CC(=O)N1CCC2(CC1)C[C@H](CCN1CCN(c3ccc(F)cc3)C[C@H]1C)NC2=O [Compound A108]", 63),
]

I. CC(=O)N1CCC2(CC1)C[C@H](CCN1CCN(c3ccc(F)cc3)C[C@@H]1C)NC2=O [Compound A107]
II. CC(=O)N1CCC2(CC1)C[C@H](CCN1CCN(c3ccc(F)cc3)[C@@H](C)C1)NC2=O [Compound A109]
## Task Just curious, which one has the larger inhibition at 0.1 µM reading, I or II ? Use the label to indicate which entry you chose.
## Result I
